// reported IC50 per item
# Measurement Target: CXCR3 (Homo sapiens, UniProt P49682)
# Sequence (P49682 whole entry): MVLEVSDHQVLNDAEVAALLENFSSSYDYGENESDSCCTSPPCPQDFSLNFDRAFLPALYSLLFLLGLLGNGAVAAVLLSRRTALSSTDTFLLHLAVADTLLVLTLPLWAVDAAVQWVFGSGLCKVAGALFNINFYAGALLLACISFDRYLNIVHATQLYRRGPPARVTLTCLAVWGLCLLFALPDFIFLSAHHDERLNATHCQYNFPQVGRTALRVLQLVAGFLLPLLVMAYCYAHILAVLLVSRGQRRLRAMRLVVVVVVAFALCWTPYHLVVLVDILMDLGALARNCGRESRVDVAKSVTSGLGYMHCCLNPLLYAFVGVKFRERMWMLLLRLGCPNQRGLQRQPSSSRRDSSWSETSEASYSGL
# Protocol Notes: Chemotaxis assay IP10, L1.2 recombinant cells expressing hCXCR3
# Format: cell-based
# Measurement Context: L1.2 hCXCR3 cells, IP10 around 0.3 nM, 4 hours

{"Structure As Smiles": "CCOc1ccc(S(=O)(=O)N(Cc2ccc(C(=O)N[C@H]3[C@@H]4CN(C(=O)OC(C)(C)C)C[C@@H]43)cc2)Cc2ccccn2)cc1", "Measurement Target": "CXCR3 (Homo sapiens, UniProt P49682)", "IC50 (µM)": 0.01}
{"Structure As Smiles": "O=S(=O)(c1ccc(Cl)cc1F)N(Cc1ccc(-c2nnn[nH]2)cc1)Cc1ccccn1", "Measurement Target": "CXCR3 (Homo sapiens, UniProt P49682)", "IC50 (µM)": 0.409}
{"Structure As Smiles": "O=C(NCCc1cccc([N+](=O)[O-])c1)c1ccc(CN(Cc2ccccc2)S(=O)(=O)c2ccc(Cl)cc2)cc1", "Measurement Target": "CXCR3 (Homo sapiens, UniProt P49682)", "IC50 (µM)": 2.45}
{"Structure As Smiles": "CC(C)(C)OC(=O)N1C[C@@H]2[C@H](C1)[C@H]2NC(=O)c1ccc(CN(Cc2ccccn2)S(=O)(=O)c2ccc(C#N)cc2)cc1", "Measurement Target": "CXCR3 (Homo sapiens, UniProt P49682)", "IC50 (µM)": 0.01}

###

# key: entry, value: IC50
# Measurement Target: CXCR3 (Homo sapiens, UniProt P49682)
# Protocol Notes: Chemotaxis assay IP10, L1.2 recombinant cells expressing hCXCR3
# Format: cell-based
# Measurement Context: L1.2 hCXCR3 cells, IP10 around 0.3 nM, 4 hours

{"Structure As Smiles": "O=S(=O)(c1ccc(Cl)cc1)N(Cc1ccc(-c2nnn[nH]2)cc1)Cc1ccccn1", "IC50 / µM": 0.496}
{"Structure As Smiles": "O=S(=O)(c1ccc(Cl)cc1)N(Cc1ccccn1)Cc1ccc(-c2nnn[nH]2)cc1F", "IC50 / µM": 0.44}
{"Structure As Smiles": "O=C(NS(=O)(=O)Cc1cccc([N+](=O)[O-])c1)c1ccc(CN(Cc2ccccn2)S(=O)(=O)c2ccc(Cl)cc2)cc1", "IC50 / µM": 0.207}
{"Structure As Smiles": "N#Cc1ccc(S(=O)(=O)N(Cc2ccc(-c3nnn[nH]3)c(F)c2)Cc2ccccc2F)cc1", "IC50 / µM": 0.193}

###

# Measurement Target: UniProtKB P49682
# Protocol Notes: CXCR3 Ca2+ mobilization (FLIPR), stable hCXCR3-CHO cell line, I-TAC stimulated
# Assay type: cell-based
# Set-up: host or cells: CHO cells stably expressing hCXCR3
# Measurement Context: hCXCR3-CHO cells, I-TAC 100 nM stimulated Ca2+ response; read-out: Ca-ITAC
IC50 for assorted compounds

{"Compound": "O=C(NCC1CC1)c1ccc(CN(Cc2ccccn2)S(=O)(=O)c2ccc(Cl)c(Cl)c2)cc1 [Example 45]", "IC50": "13 µM"}
{"Compound": "CC(c1cccc(-c2nnn[nH]2)c1)N(Cc1ccccc1)S(=O)(=O)c1ccc(Cl)cc1 (stereo not drawn) [Example 271]", "IC50": "5 µM"}
{"Compound": "CC(C)(C)c1ccc(S(=O)(=O)N(Cc2ccc(C#N)cc2)Cc2ccccn2)cc1 [Example 177]", "IC50": "1.45 µM"}
